test-system: human GPR120 (Homo sapiens (Human))
Sequence (Q5NUL3 whole entry): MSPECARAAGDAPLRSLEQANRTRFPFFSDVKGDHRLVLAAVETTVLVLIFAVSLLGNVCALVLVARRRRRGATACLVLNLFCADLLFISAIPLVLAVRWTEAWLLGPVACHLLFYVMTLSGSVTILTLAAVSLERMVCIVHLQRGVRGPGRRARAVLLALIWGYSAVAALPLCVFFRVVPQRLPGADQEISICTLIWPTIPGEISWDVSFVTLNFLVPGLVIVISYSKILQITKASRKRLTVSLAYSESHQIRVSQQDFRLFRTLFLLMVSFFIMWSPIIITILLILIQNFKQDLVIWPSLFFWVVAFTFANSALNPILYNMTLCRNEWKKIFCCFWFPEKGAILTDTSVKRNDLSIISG
assay-notes: FLIPR assay: intracellular calcium in CHO cells expressing human GPR120
Assay type: cell-based
condition: FLIPR calcium assay, CHO cells expressing human GPR120, agonist action
I'd appreciate it if you could supply EC50 values for the items below.
Answers are plain numbers, in nM.

Examples with answers:
Cc1cc(F)cc(N2CCC3(CCC(CC(=O)O)CC3)CC2)c1Cl    2860
CC(C)(C)c1cc(N2CCC3(CCC(CC(=O)O)CC3)CC2)cc(C(F)(F)F)c1    3750
Cc1ccc(C)c(N2CCC3(CCC(CC(=O)O)CC3)CC2)c1    1440

Record EC50 per entry; entries follow.
1. CCc1cc(C)cc(N2CCC3(CCC(CC(=O)O)CC3)CC2)c1
2. Cc1cc(OC(F)(F)F)cc(N2CCC3(CCC(CC(=O)O)CC3)CC2)c1

OUT:
1290
377
